Reported IC50 against PIK3CB (Human) (UniProt P42338), gathered from multiple publications, appears below.

Answered cases to consult:
CC(C)N1CCN(c2cnc3ccc(-c4ccc5oc(N)nc5c4)nc3n2)CC1    < 1 µM
Cc1csc2nc(Cn3nc(Cl)c4c(N)ncnc43)n(-c3ccccc3C(F)(F)F)c(=O)c12    > 10 µM
C[C@H]1OC(=O)N(c2cc(-c3cnc(N)nc3C(F)(F)F)nc(N3CCOCC3)n2)[C@H]1CO    0.004 µM
Cc1ccc(-n2c([C@H](C)Nc3nc(N)ncc3C#N)cc3cccc(Cl)c3c2=O)cc1    1 to 10 µM
C[C@H](Nc1ncnc2cccnc12)c1cc2cccc(Cl)c2c(N2CCN(C)CC2)n1    < 1 µM

Please turn your attention to the following entry.
Asked: So what does the record say about IC50 for CC1CN(c2cnc3ccc(-c4ccc5oc(N)nc5c4)cc3n2)CCN1 (stereo not drawn) ?
Given back: < 0.1 µM

* * *

pIC50: −log10 of the molar value.
Multiple publications report pIC50 for PIK3CB (Human) (UniProt P42338); what follows is a combined list.

CC(=O)Nc1n[nH]c2ccc(-c3ccc4oc(N)nc4c3)cc12    < 5.00
Cc1cccc2cc([C@H](C)NC3CCOCC3)n(-c3ccccc3)c(=O)c12    < 5.00
CN(C)C1CCN(c2cnc3ccc(-c4ccc5oc(N)nc5c4)cc3n2)CC1    > 7.00
Cc1ccccc1-n1c(Cn2nc(-c3ccc4nc(N)ncc4c3)c3c(N)ncnc32)cc2cccc(C)c2c1=O    > 6.00
Cc1cccc(-c2cccc3cc([C@H](C)Nc4nc(N)ncc4C#N)n(-c4ccccc4)c(=O)c23)c1    5.00 to 6.00

Asked: Recall the recorded pIC50 for C[C@H](Nc1ncnc2cccnc12)c1cc2cccc(Cl)c2c(C(=O)N2CCC(F)(F)CC2)n1 with PIK3CB (Human) (UniProt P42338) and state it.
Given back: < 5.00

Asked: Request: pIC50, test system PIK3CB (Human) (UniProt P42338), entry C[C@H](Nc1nc(N)ncc1C#N)c1cc2cccc(-c3ccc(=O)n(C)c3)c2c(=O)n1-c1ccon1
Given back: 5.00 to 6.00

Asked: Return pIC50 measured with PIK3CB (Human) (UniProt P42338) given this compound: Cc1cccc2cc(Cn3nc(-c4cccc(O)c4)c4c(N)ncnc43)n(C3CC3)c(=O)c12
Given back: > 6.00

* * *

What follows is literature data on IC50 for PIK3CB (Human) (UniProt P42338).

The following compounds have reported results that may help.
C[C@H](NC(=O)c1c(N)nn2cccnc12)c1cc2cccc(CO)c2c(=O)n1-c1ccccc1    1 to 10 µM
C[C@@H]1CN(C2CN(c3cnc4ccc(-c5ccc6oc(N)nc6c5)cc4n3)C2)CCN1    < 10 µM
Nc1nc2cc(-c3ccc4ncn(CCCN5CCOCC5)c(=O)c4c3)ccc2o1    > 10 µM

Asked: Find the recorded IC50 belonging to CC(=O)Nc1nc2ccc(-c3nn(Cc4cc5cccc(C)c5c(=O)n4-c4cccc(F)c4)c4ncnc(N)c34)cc2s1 and report it.
Given back: < 10 µM

Asked: Could you tell me which IC50 is on file for CC(C)Oc1cncc(-c2cccc3cc([C@H](C)Nc4nc(N)ncc4C#N)n(-c4ccccc4)c(=O)c23)c1 ?
Given back: 1 to 10 µM

Asked: // returns reported IC50 for input O=C(c1cnc2ccc(-c3cnc4cc[nH]c4c3)cn12)N1CCOCC1
Given back: > 10 µM

Asked: So what does the record say about IC50 for Cc1cccc2cc(Cn3nc(I)c4c(N)ncnc43)n(C3CCC3)c(=O)c12 ?
Given back: > 10 µM

Asked: # IC50 lookup, item Cc1nccn1C1CCN(c2cnc3ccc(-c4ccc5oc(N)nc5c4)cc3n2)CC1
Given back: < 10 µM

* * *

Several publications report IC50 on PIK3CB (Human) (UniProt P42338); those values are gathered here.

C[C@H](Nc1ncnc2[nH]cnc12)c1cc2cccc(-c3cnn(C)c3)c2c(C(=O)N2CCOCC2)n1    > 10 µM
Cc1cccnc1-n1c(Cn2nc(C#C[C@@H](C)O)c3c(N)ncnc32)cc2cccc(C)c2c1=O    > 10 µM

Could you now look at the following compound, please?
Asked: What reported IC50 corresponds to C[C@H](NC(=O)c1c(N)nn2ccc(-c3cccc(S(C)(=O)=O)c3)nc12)c1cc2cccc(Cl)c2c(=O)n1-c1ccccc1 on PIK3CB (Human) (UniProt P42338)?
Given back: < 0.1 µM
